- Test system: PIP5K1C
- settings: concentration: 1 μM, replicates: in singlicate; n = 1;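 also: KINOMEscan kinase panel screen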
metric: %Inh (%)
Form entry: value (%) — number only.

| compound | %Inh (%) |
| --- | --- |
| COC(=O)c1cccc(NC(=O)NCCNc2ccnc(Nc3ccc(F)cc3)n2)c1 [GSK1379883] | 56 |
| CC(C)(C)OC(=O)NC1CCCN(c2cc(-c3ccc4c(N)n[nH]c4c3)nc(N)n2)C1 (stereo not drawn) [GSK2286096] | 7 |
| NC(=O)c1sc(-n2cnc3ccccc32)cc1OCc1ccccc1F [GSK1024306] | 53 |
| CCc1nc(-c2cccc(C)c2)c(-c2ccnc(NC(=O)c3ccccc3)c2)s1 | 0 |
| COC(=O)c1c(-c2ccccc2)c2cc(Cl)ccc2c(=O)n1Cc1ccc(S(C)(=O)=O)cc1 | 0 |

// Input: FC(F)(F)c1cc(Nc2nccc(-c3c(-c4ccc(Cl)cc4)nn4ncccc34)n2)ccc1Cl [GW829351] . Output its %Inh only. 0

// Input: Cl.O=S(=O)(c1cccc(F)c1)c1ccc(Nc2ncnc3cc(Br)sc23)cc1Cl [GSK306886] . Output its %Inh only. 70

// Input: Nc1n[nH]c2nnc(-c3ccccc3)cc12 [SB-517389] . Output its %Inh only. 0

====

- Tested on: PRKCH
- settings: concentration: 1 μM, replicates: in singlicate; n = 1
# reported %Inh; entries follow
Form entry: value (%) — number only.

// solved cases for %Inh follow
| smilesString | %Inh (%) |
| --- | --- |
| CN1c2ccc(-c3ccc(C(=O)NCCO)cc3)cc2-c2[nH]ncc2S1(=O)=O | 8 |
| COc1ccc(NC(=O)c2ccc(-c3cc(-c4nnc(C)o4)ccc3C)cc2)cc1 | 8 |
| COc1cc2c(Nc3cccc(NC(=O)c4ccccc4)c3)ncnc2cc1OCCCN1CCOCC1 | 10 |
| OCCOCCn1ccc2ncnc(Nc3ccc(Oc4cccc(Cl)c4)c(Cl)c3)c21 | 0 |
| Clc1cc(Nc2ncnc3cc[nH]c23)ccc1OCc1ccccn1 | 0 |
| Cc1ccc(O)cc1Nc1cc(C(F)(F)F)nc2ccc(-c3ccncc3)cc12 | 0 |

Here's the next entry for you.
// Input: CCn1c(-c2ccncc2)nc2cnccc21 . Output its %Inh only. 12

====

# reported %Inh; entries follow
- Test system: ACVR1B
- settings: concentration: 1 μM, replicates: in singlicate; n = 1
Form entry: value (%) — number only.

// solved cases for %Inh follow
| compound | measureUnit | %Inh |
| --- | --- | --- |
| Nc1nccc2scc(-c3ccc4c(c3)CCN4C(=O)Cc3cc(F)ccc3F)c12 [GSK2587663] | % | 0 |
| Cl.Cl.c1ccc(-c2cc3ccncc3cc2OC2CCNCC2)cc1 [GSK1122999] | % | 0 |
| COC(=O)c1cccc(NC(=O)NCCNc2ccnc(Nc3ccc(F)cc3)n2)c1 [GSK1379883] | % | 0 |

// Input: CCc1nc(-c2cccc(N(C)S(=O)(=O)c3ccccc3)c2)c(-c2ccnc(Nc3ccc(N4CCN(C(C)=O)CC4)nc3)n2)s1 [GSK1645895] . Output its %Inh only. 0

// Input: O=c1cc(N2CCOCC2)nc2n(Cc3cccc(Cl)c3)ccn12 [GSK2296823] . Output its %Inh only. 0

// Input: C[C@@H]1CCN(C(=O)CO)C[C@@H]1N(C)c1ncnc2[nH]ccc12 . Output its %Inh only. 13

// Input: COc1ccc(NC(=O)Nc2ccc(C)c(-c3ccc(C(=O)Nc4ccncc4)cc3)c2)cc1 [GSK1398475] . Output its %Inh only. 0
